test system: MDCK; assay: Cytotoxicity against MDCK cells by MTT assay; type: cell-based, Canis lupus familiaris; settings: dog, mdck
The entries below are paired with their reported CC50.
Could you give me the number in µM? Just the number is fine.

MOLECULE	CC50 [µM]
Cc1cc2c(c(O)c1-c1c(C)cc3c(c1O)/C(=C/N[C@@H](Cc1c[nH]c4ccccc14)C(=O)[O-])C(=O)C(O)=C3C(C)C)/C(=C/N[C@@H](Cc1c[nH]c3ccccc13)C(=O)[O-])C(=O)C(O)=C2C(C)C.[Na+].[Na+] (stereo in doubt; (+)-7b)	35.6
COC(=O)[C@H](Cc1c[nH]c2ccccc12)N/C=C1\C(=O)C(O)=C(C(C)C)c2cc(C)c(-c3c(C)cc4c(c3O)/C(=C/N[C@@H](Cc3c[nH]c5ccccc35)C(=O)OC)C(=O)C(O)=C4C(C)C)c(O)c21 (stereo in doubt; (+)-11b)	36.3

# context switch: different molecule, same CC50
Item Cc1cc2c(c(O)c1-c1c(C)cc3c(c1O)/C(=C/NC(C)(C)C(=O)[O-])C(=O)C(O)=C3C(C)C)/C(=C/NC(C)(C)C(=O)[O-])C(=O)C(O)=C2C(C)C.[Na+].[Na+] (stereo in doubt; (+)-9b) with MDCK - CC50?
45.5

----------
assay: Cytotoxicity against MDCK cells by MTT assay; format: cell-based, Canis lupus familiaris; conditions: dog, MDCK cells
OBSERVED PROPERTY: CC50

COMPOUND	CC50
NC12CC3CC(CC(C3)C1)C2	> 220 µM
Cc1cc2c(c(O)c1-c1c(C)cc3c(c1O)/C(=C/N[C@@H](C)C(=O)[O-])C(=O)C(O)=C3C(C)C)/C(=C/N[C@@H](C)C(=O)[O-])C(=O)C(O)=C2C(C)C.[Na+].[Na+] (stereo in doubt; (-)-5a)	> 47.3 µM
Cc1cc2c(c(O)c1-c1c(C)cc3c(c1O)/C(=C/N[C@H](C(=O)[O-])C(C)C)C(=O)C(O)=C3C(C)C)/C(=C/N[C@H](C(=O)[O-])C(C)C)C(=O)C(O)=C2C(C)C.[Na+].[Na+] (stereo in doubt; (-)-6a)	> 43.8 µM
CC[C@H](C)[C@H](N/C=C1\C(=O)C(O)=C(C(C)C)c2cc(C)c(-c3c(C)cc4c(c3O)/C(=C/N[C@H](C(=O)[O-])[C@@H](C)CC)C(=O)C(O)=C4C(C)C)c(O)c21)C(=O)[O-].[Na+].[Na+] (stereo in doubt; (-)-8a)	> 42.2 µM
Cc1cc2c(c(O)c1-c1c(C)cc3c(c1O)/C(=C/N[C@@H](Cc1c[nH]c4ccccc14)C(=O)[O-])C(=O)C(O)=C3C(C)C)/C(=C/N[C@@H](Cc1c[nH]c3ccccc13)C(=O)[O-])C(=O)C(O)=C2C(C)C.[Na+].[Na+] (stereo in doubt; (-)-7a)	> 35.6 µM
COC(=O)[C@H](Cc1c[nH]c2ccccc12)N/C=C1\C(=O)C(O)=C(C(C)C)c2cc(C)c(-c3c(C)cc4c(c3O)/C(=C/N[C@@H](Cc3c[nH]c5ccccc35)C(=O)OC)C(=O)C(O)=C4C(C)C)c(O)c21 (stereo in doubt; (-)-11a)	> 36.3 µM

# lookup: CC50 of COC(=O)[C@H](C)N/C=C1\C(=O)C(O)=C(C(C)C)c2cc(C)c(-c3c(C)cc4c(c3O)/C(=C/N[C@@H](C)C(=O)OC)C(=O)C(O)=C4C(C)C)c(O)c21 (stereo in doubt; (-)-10a)
> 48.4 µM

All values here come from ChEMBL document CHEMBL2375337.
